Test: mn = molality of the nth substance listed, in mol/kg
Conditions: 323.15 K; 101.3 kPa; Liquid; Capillary tube (Ostwald / Ubbelohde) method; m1 = 0.2
READOUT: viscosity (mPa·s)

compound="NCC(=O)O [2-aminoacetic acid] + O" recorded_number=0.563
compound="OC[C@@H](O)[C@@H](O)[C@H](O)[C@H](O)CO [D-mannitol] + O" recorded_number=0.592
compound="N=C(N)NCCC[C@H](N)C(=O)O [L-arginine] + O" recorded_number=0.598
compound="C[C@H](N)C(=O)O [(S)-2-aminopropanoic acid] + O" recorded_number=0.571

----------
Assay: mn = molality of the nth substance listed, in mol/kg
Conditions: 313.15 K; 101.3 kPa; Liquid; Capillary tube (Ostwald / Ubbelohde) method; m1 = 0.2
READOUT: viscosity (mPa·s)

compound="NCC(=O)O [2-aminoacetic acid] + O" recorded_number=0.672
compound="OC[C@@H](O)[C@@H](O)[C@H](O)[C@H](O)CO [D-mannitol] + O" recorded_number=0.711
compound="C[C@H](N)C(=O)O [(S)-2-aminopropanoic acid] + O" recorded_number=0.684
compound="N=C(N)NCCC[C@H](N)C(=O)O [L-arginine] + O" recorded_number=0.717

Data credit: the NIST ThermoML archive (doi:10.1021/je501178z)
